- Tested on: UACC-62
- ASSAY_OVERVIEW: NCI tumour cell line growth inhibition, 48 h
Activity calls are given as the source filed them. Cut-off read from the data, not from the text of the source: active = GI50 up to about 1.1 µM and inactive = higher.
MEASURED_QUANTITY: GI50

Incoming: Request the reported GI50 associated with `COc1cc2c3c(n(C)c(=O)c2cc1OC)-c1cc2c(cc1C3=O)OCO2`
Outgoing: 1.7 µM (inactive)

Incoming: Request the reported GI50 associated with CC(=O)N/N=C1/CC[C@@]2(C)C(=CC[C@H]3C4CCC(C(C)CCCC(C)C)[C@@]4(C)CCC32)C1(C)C (stereo not given in full)
Outgoing: > 100 µM (inactive)

***
Incoming: Request the reported GI50 associated with `c1ccc([P+](CCCCCCCC[P+](c2ccccc2)(c2ccccc2)c2ccccc2)(c2ccccc2)c2ccccc2)cc1`
Outgoing: 24.1 µM (inactive)

Incoming: Request the reported GI50 associated with CC(=O)CC1(OC(=O)C2C(C=C(C)C)C2(C)C)C(=O)Nc2ccccc21 (stereo not given)
Outgoing: > 100 µM (inactive)

Incoming: Request the reported GI50 associated with `Nc1ncnc2c1ncn2-c1ccc([N+](=O)[O-])cn1`
Outgoing: > 100 µM (inactive)
